- Test system: human Liver-Chip (primary human hepatocytes)
- method summary: Liver-Chip alanine transaminase (ALT) release in top channel effluent (ELISA)
- Format: cell-based
- recorded conditions: Liver-Chip effluent
- Experimental: Cycles 1 to 4 tested 6–8 concentrations in duplicate for each of 10–13 drugs. […] For each of these datasets, we performed curve-fitting analyses and calculated the Root Mean Square Error between the “true” and estimated IC50 parameter. […] The drug dosing concentrations were determined from the unbound human Cmax of each drug. […] Dosing concentrations were then back calculated such that the unbound fraction in media would reflect relevant multiples of unbound human Cmax (Supplementary Data 1). […]
measured parameter: ALT change in words

INSERT INTO assay_data (structure_smiles_string, val) VALUES
  ('C=C[C@@H]1C[C@]1(NC(=O)[C@@H]1C[C@@H](Oc2ncc(OC)c3ccc(Cl)cc23)CN1C(=O)[C@@H](NC(=O)OC(C)(C)C)C(C)(C)C)C(=O)NS(=O)(=O)C1CC1', 'no elevation of ALT'),
  ('O=C(O)Cc1ccccc1Nc1c(Cl)cccc1Cl', 'no elevation of ALT');
